Entries and their pIC50 values follow.
target: baculovirus-expressed ALK (Homo sapiens); construct: host or cells: baculovirus expression system; assay: ALK Kinase Assay (ELISA-type, time-resolved fluorescence); type: biochemical; conditions: 1 μM ATP (Km level); read-out: ALK Activity (ALK Kinase Inhibition, IC50)
Sequence (Q9UM73 19-1620): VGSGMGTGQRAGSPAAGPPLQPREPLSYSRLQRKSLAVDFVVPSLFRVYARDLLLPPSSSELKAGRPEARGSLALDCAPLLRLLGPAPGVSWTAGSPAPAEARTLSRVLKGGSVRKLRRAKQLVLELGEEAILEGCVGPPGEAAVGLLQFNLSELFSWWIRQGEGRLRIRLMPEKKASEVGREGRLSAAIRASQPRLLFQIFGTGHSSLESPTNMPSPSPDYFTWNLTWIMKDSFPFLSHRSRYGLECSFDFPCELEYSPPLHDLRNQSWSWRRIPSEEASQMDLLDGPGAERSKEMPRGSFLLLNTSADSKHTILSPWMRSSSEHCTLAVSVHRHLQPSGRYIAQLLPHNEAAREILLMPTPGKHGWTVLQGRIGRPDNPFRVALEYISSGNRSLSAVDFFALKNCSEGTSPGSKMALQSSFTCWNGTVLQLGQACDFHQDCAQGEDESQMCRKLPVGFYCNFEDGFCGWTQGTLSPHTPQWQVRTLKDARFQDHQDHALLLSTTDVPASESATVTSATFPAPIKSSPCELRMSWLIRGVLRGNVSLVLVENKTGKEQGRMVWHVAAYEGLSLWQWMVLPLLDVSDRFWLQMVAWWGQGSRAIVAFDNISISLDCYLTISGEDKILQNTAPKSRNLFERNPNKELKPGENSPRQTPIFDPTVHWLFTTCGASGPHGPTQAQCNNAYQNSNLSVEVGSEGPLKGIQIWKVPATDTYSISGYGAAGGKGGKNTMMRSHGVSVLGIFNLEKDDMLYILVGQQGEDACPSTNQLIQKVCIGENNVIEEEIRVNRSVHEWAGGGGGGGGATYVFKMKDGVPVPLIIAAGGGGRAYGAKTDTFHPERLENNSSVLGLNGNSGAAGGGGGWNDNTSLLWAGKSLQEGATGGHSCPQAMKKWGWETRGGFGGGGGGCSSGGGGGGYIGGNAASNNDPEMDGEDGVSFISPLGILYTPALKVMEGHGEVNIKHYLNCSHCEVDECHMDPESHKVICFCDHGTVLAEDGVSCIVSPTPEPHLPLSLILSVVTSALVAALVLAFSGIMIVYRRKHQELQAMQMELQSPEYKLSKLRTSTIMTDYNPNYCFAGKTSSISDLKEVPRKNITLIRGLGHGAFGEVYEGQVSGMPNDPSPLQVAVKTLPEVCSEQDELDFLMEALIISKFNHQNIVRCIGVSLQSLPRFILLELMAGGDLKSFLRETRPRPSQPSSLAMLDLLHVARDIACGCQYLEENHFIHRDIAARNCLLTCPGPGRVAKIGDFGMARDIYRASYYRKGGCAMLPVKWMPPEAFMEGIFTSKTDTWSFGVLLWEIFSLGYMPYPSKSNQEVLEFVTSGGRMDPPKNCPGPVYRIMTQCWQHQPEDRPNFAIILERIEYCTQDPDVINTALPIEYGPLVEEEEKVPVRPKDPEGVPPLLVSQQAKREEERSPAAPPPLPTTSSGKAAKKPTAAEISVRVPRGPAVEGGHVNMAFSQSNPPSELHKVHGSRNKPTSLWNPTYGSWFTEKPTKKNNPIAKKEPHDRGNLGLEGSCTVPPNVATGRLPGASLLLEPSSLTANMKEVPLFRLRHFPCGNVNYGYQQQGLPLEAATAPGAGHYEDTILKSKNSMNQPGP
pIC50: −log10 of the molar value.

Task: Determine its reported pIC50: COc1c(Nc2ncc(Cl)c(N[C@@H]3CCCC[C@H]3NS(C)(=O)=O)n2)ccc2c1CCC(NCCO)CC2 (single isomer, unassigned) [Example 698]
Result: > 7.00

----------
molecular target: c-Met (cytoplasmic domain) (Homo sapiens, UniProt P08581); construct: 10 ng/mL c-Met (cytoplasmic domain, Invitrogen Corporation #PV3143); purchased Invitrogen Corporation PV3143; experiment: c-Met Kinase Assay (same methods as for ALK, with modifications); assay type: biochemical; conditions: 1 μM ATP (Km level); read-out: cMet Activity (c-Met Kinase Inhibition, IC50)
Sequence (P08581 956-1390 limits assumed): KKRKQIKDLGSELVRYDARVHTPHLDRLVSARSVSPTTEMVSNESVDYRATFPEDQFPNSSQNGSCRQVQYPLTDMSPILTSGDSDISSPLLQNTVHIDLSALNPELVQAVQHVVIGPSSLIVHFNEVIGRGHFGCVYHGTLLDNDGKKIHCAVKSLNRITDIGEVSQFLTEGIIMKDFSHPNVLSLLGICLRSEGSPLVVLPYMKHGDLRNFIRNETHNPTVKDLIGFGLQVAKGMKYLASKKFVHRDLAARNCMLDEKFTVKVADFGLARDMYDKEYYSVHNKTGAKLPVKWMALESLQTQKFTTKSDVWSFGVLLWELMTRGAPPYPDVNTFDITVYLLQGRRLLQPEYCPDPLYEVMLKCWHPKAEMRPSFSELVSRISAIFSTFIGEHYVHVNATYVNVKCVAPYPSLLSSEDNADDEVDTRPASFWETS
Observed Property: IC50

CC(C)N1C(=O)CCCc2cc(Nc3ncc(Cl)c(N[C@@H]4CCCC[C@H]4NS(C)(=O)=O)n3)ccc21 | 100 to 1000 nM
CCN1CC2CC1CN2c1ccc(Nc2nc(Nc3cc4c(cc3OC)CCN(CC(=O)N(C)C)CC4)ncc2Cl)c(OC)c1 (stereo not shown) | 1000 to 10000 nM
COc1cc2c(cc1Nc1ncc(Cl)c(Nc3ccc(N4CCN(C(C)C)CC4)c4c3C(=O)N(C)C4)n1)CCN(CC(=O)N(C)C)CC2 | > 10000 nM

Task: Determine its reported IC50: `CCN1CCN(CC)c2cc(Nc3ncc(Cl)c(Nc4ccc(N5CCOCC5)cc4OC)n3)ccc2C1`
Result: 1000 to 10000 nM

Attribution: patent US8148391B2
